# EXPERIMENTAL_TARGET: Tau
# PROCEDURE_TEXT: rat primary cortical neurons, FLIPR, 25 uM ASO
Bases are written 5' to 3'; sugars and linkages follow in the same order, as letters with counts (s phosphorothioate, o phosphodiester; PS: all linkages phosphorothioate). The collection does not say whether C is 5-methylated. l = locked nucleic acid (LNA); d = 2'-deoxy (DNA)
MEASURED_PROPERTY: calcium oscillation score

{"RESIDUE_STRING": "CACCCTAAACCATGAT (sugars l3 d10 l3, PS)", "RESULT": "71.4 % of control"}
{"RESIDUE_STRING": "CTGGTTTGTAGACTATTTGC (sugars l3 d14 l3, PS)", "RESULT": "0 % of control"}
{"RESIDUE_STRING": "CTTATTAATTATCTGC (sugars l4 d8 l4, PS)", "RESULT": "33.9 % of control"}
{"RESIDUE_STRING": "CTGGACGTTGCTAAGA (sugars l3 d10 l3, PS)", "RESULT": "0 % of control"}
{"RESIDUE_STRING": "CGCAGGCGCGAGCA (sugars l3 d8 l3, PS)", "RESULT": "102 % of control"}
{"RESIDUE_STRING": "GGATGTTGCCTAATGAGCCA (sugars l3 d14 l3, PS)", "RESULT": "0 % of control"}
{"RESIDUE_STRING": "ACCTTTTTCCATCTTACTAA (sugars l4 d13 l3, PS)", "RESULT": "52 % of control"}
{"RESIDUE_STRING": "TGATGGATGTTGCCTA (sugars l3 d10 l3, PS)", "RESULT": "29.6 % of control"}

Recorded calcium oscillation score for AAAACATTCTCACCAAACCC (sugars l4 d14 l2, PS) , please?
83.5 % of control

Given CATGCAGTTTATTCCTGGCA (sugars l3 d14 l3, PS) , state its recorded calcium oscillation score.
6.04 % of control

Given TAATCACTCATGCCTTA (sugars l4 d9 l4, PS) , state its recorded calcium oscillation score.
62.9 % of control

----------
# EXPERIMENTAL_TARGET: Tau
# PROCEDURE_TEXT: rat primary cortical neurons, FLIPR, 25 uM ASO
Bases are written 5' to 3'; sugars and linkages follow in the same order, as letters with counts (s phosphorothioate, o phosphodiester; PS: all linkages phosphorothioate). The collection does not say whether C is 5-methylated. l = locked nucleic acid (LNA); d = 2'-deoxy (DNA)
Collected calcium oscillation score values appear next to each entry.

{"RESIDUE_STRING": "CCAAAACATTCTCACCAAAC (sugars l3 d15 l2, PS)", "RESULT": "68.1 % of control"}
{"RESIDUE_STRING": "CAACTGGTTTGTAGACTATT (sugars l3 d14 l3, PS)", "RESULT": "6.64 % of control"}
{"RESIDUE_STRING": "ACTTATCTATCCATCTAT (sugars l4 d11 l3, PS)", "RESULT": "80.2 % of control"}

For ATTTTACTACTCTCTTTTC (sugars l4 d11 l4, PS) , what is its reported calcium oscillation score?
70.6 % of control

Look up calcium oscillation score for this sequence: CACCACAGTCTTTTAAT (sugars l4 d10 l3, PS)
73.7 % of control

Quick one: calcium oscillation score of AGTCTACCATGTCGAT (sugars l3 d10 l3, PS) ?
69.1 % of control

----------
# EXPERIMENTAL_TARGET: Tau
# PROCEDURE_TEXT: rat primary cortical neurons, FLIPR, 25 uM ASO
Bases are written 5' to 3'; sugars and linkages follow in the same order, as letters with counts (s phosphorothioate, o phosphodiester; PS: all linkages phosphorothioate). The collection does not say whether C is 5-methylated. l = locked nucleic acid (LNA); d = 2'-deoxy (DNA)
MEASURED_PROPERTY: calcium oscillation score

{"RESIDUE_STRING": "CCGTGGTCTGTCTTGG (sugars l3 d10 l3, PS)", "RESULT": "42.2 % of control"}
{"RESIDUE_STRING": "GGTTAGCCCTAAAGTCCCAG (sugars l3 d14 l3, PS)", "RESULT": "37.3 % of control"}
{"RESIDUE_STRING": "CACATTTGCAAACCACA (sugars l3 d10 l4, PS)", "RESULT": "67.4 % of control"}
{"RESIDUE_STRING": "CAGTCCCGTCTTTGCT (sugars l3 d10 l3, PS)", "RESULT": "0 % of control"}
{"RESIDUE_STRING": "CCTCTAGTTTTACCTAA (sugars l2 d11 l4, PS)", "RESULT": "72.9 % of control"}

// query calcium oscillation score value for entry CATTGGAACTGAGCAC (sugars l3 d10 l3, PS)
8.33 % of control

Tell me the measured calcium oscillation score of GCAACAATCCAACCAC (sugars l2 d10 l4, PS) , please.
76.3 % of control

Return reported calcium oscillation score; argument: CTCACCCCAAACAAGA (sugars l3 d10 l3, PS)
65.6 % of control

Report calcium oscillation score for CACCTTCAGCCCAACTT (sugars l4 d11 l2, PS) please.
41.6 % of control

Looking for the measured calcium oscillation score of AATATTACATCAGTCT (sugars l4 d8 l4, PS) , can you help?
34.6 % of control

calcium oscillation score for TCATTTACCAATTATCTTTA (sugars l4 d13 l3, PS) ?
48.8 % of control

----------
Consider the following sequences and their measured calcium oscillation score readings.
# EXPERIMENTAL_TARGET: Tau
# PROCEDURE_TEXT: rat primary cortical neurons, FLIPR, 25 uM ASO
Bases are written 5' to 3'; sugars and linkages follow in the same order, as letters with counts (s phosphorothioate, o phosphodiester; PS: all linkages phosphorothioate). The collection does not say whether C is 5-methylated. l = locked nucleic acid (LNA); d = 2'-deoxy (DNA)

What does the data say about its calcium oscillation score? Entry: CTTTATTTCCAAATTCACTT (sugars ldlllddddddddddlldll, PS)
134 % of control

----------
# EXPERIMENTAL_TARGET: Tau
# PROCEDURE_TEXT: rat primary cortical neurons, FLIPR, 25 uM ASO
Bases are written 5' to 3'; sugars and linkages follow in the same order, as letters with counts (s phosphorothioate, o phosphodiester; PS: all linkages phosphorothioate). The collection does not say whether C is 5-methylated. l = locked nucleic acid (LNA); d = 2'-deoxy (DNA)
Listing of recorded calcium oscillation score by entry.

Observe how each entry below is paired with its result.
{"RESIDUE_STRING": "TTCCACTACAAGCTCCAC (sugars l3 d13 l2, PS)", "calcium oscillation score": "52 % of control"}
{"RESIDUE_STRING": "AACATCTAAACACCTCAA (sugars l4 d10 l4, PS)", "calcium oscillation score": "78.9 % of control"}
{"RESIDUE_STRING": "GTCCACAAACCAACTCA (sugars l3 d11 l3, PS)", "calcium oscillation score": "91.3 % of control"}
{"RESIDUE_STRING": "TATGTTTTTTAACTCCC (sugars l4 d11 l2, PS)", "calcium oscillation score": "94.3 % of control"}
{"RESIDUE_STRING": "ATATTGAACTCACCCA (sugars l4 d9 l3, PS)", "calcium oscillation score": "67.3 % of control"}
{"RESIDUE_STRING": "ATTTCAGAGCAAAGTGACCC (sugars l3 d14 l3, PS)", "calcium oscillation score": "74.5 % of control"}
{"RESIDUE_STRING": "GGCCTGATCACAAACCCTGC (sugars l3 d14 l3, PS)", "calcium oscillation score": "9.07 % of control"}
{"RESIDUE_STRING": "AGACACCTCGTCAGCTAGCG (sugars l3 d14 l3, PS)", "calcium oscillation score": "9.07 % of control"}
{"RESIDUE_STRING": "ATCTTCGACTGGACTC (sugars l3 d10 l3, PS)", "calcium oscillation score": "59.7 % of control"}
{"RESIDUE_STRING": "CCACATTTGTCTTTAAC (sugars l3 d10 l4, PS)", "calcium oscillation score": "42.9 % of control"}

Sample TGAAGTCCCGAGCCAAAGCC (sugars l3 d14 l3, PS) — what was its calcium oscillation score?
0 % of control

Value lookup for calcium oscillation score; key = TAGGAGAGGAAGGTGG (sugars l3 d10 l3, PS)
3.7 % of control

Form field: reported calcium oscillation score of CTCCTAATTTTGCACTCA (sugars l3 d13 l2, PS)
50.5 % of control

Which calcium oscillation score is reported for this sequence? AATACATCAATAGAAGGCAA (sugars l3 d14 l3, PS)
16.1 % of control

Requested field: calcium oscillation score. Item: AACCACTCTTATTCTTTAAA (sugars l4 d12 l4, PS)
91.3 % of control

I am curious: what calcium oscillation score value has been reported for CCCTTCAACATCAGCCA (sugars l2 d13 l2, PS) ?
47.6 % of control

Suppose we examine the sequence CACTTTCCTAATTCCCAAA (sugars l3 d14 l2, PS) ; what calcium oscillation score value has been reported?
68 % of control

Which value of calcium oscillation score has been reported for ACCAATTAACCGAACT (sugars l3 d10 l3, PS) in the records?
159 % of control

// query calcium oscillation score value for entry CTTTATTTCCAAATTCACT (sugars l5 d9 l1 d2 l2, PS)
104 % of control

# query: calcium oscillation score of entry CCCACTTTTAATTAAATTTC (sugars l3 d14 l3, PS)
76.8 % of control

Would you mind telling me what calcium oscillation score value was observed for TCAGCTAGCGTGGCGA (sugars l3 d10 l3, PS) ?
75.9 % of control

Quick one: calcium oscillation score for GAAAGATGAAATTTGCTCTT (sugars l3 d14 l3, PS) ?
100 % of control

Which value of calcium oscillation score has been reported for CATCCATTTTCTGACTCT (sugars l4 d12 l2, PS) in the records?
42.4 % of control

Reference for the values: the OligoGym collection
